Ref: patent US9980943B2

System: α7 integrin (LacZ reporter in α7LacZ+/− myoblasts)
methodSummary: qHTS of the LOPAC library and MLSMR (online screen, α7LacZ+/− myoblasts)
condition: Mus musculus, Myoblast, 48 h, read-out: Activity at 7.660 uM [%] **
The entries below are paired with their reported activation at 7.66 µM.
Reply numerically in %, unit not repeated.

Task: Tell me activation at 7.66 µM reported for CCCC(=O)Nc1ccccc1NC(=O)c1ccc(OCC)cc1 [Compound 206]
Output: 28.5

Task: Specify measured activation at 7.66 µM for NC(=O)c1cccnc1Oc1ccc(Cl)cc1Cl [Compound 113] .
Output: 23.5

###

Known Burkin Assay in Myotubes (signal relative to DMSO) of a selection of molecules
Tested on: α7 integrin (LacZ reporter in α7+/LacZ myotubes)
methodSummary: Myotube α7 integrin FDG assay (Burkin assay in myotubes, 96-well)
Type: cell-based, mouse
condition: 1 uM, myotubes

Example entries and their recorded answers appear below.
O=C(NCc1ccccc1)C(c1ccc(O)cc1)N(C(=O)Cn1nnc(-c2cccs2)n1)c1ccc2c(c1)OCCO2 (stereo not drawn)    0.8963
Cc1ccccc1C(=O)Nc1nnc(SC(C)C)s1    0.9165

The record that follows has no Burkin Assay in Myotubes (signal relative to DMSO) shown yet.
Task: Please supply the value of reported Burkin Assay in Myotubes (signal relative to DMSO) for the item "O=C(Nc1ccc(Cl)cc1N1CCOCC1)C1CCCCC1"
Output: 1.071

###

Tested on: β-galactosidase in CMV-LacZ C2C12 myotubes
methodSummary: CMV-LacZ secondary screen in C2C12 myotubes (β-Gal stabilizing assay)
Format: cell-based, mouse
condition: Mus musculus, C2C12, read-out: CMV-LACZ in Myotubes, signal relative to DMSO, 40 uM; C2C12 CMV-LacZ myotubes; fold relative to DMSO
recordedMetric: fold induction at 40 µM
Output: the number by itself.

Worked cases, fold induction at 40 µM given:
Nc1nccc(-c2ccc(-n3cnc4ccccc43)cc2)n1    0.802
COc1ccc(-c2cc(COc3ccccc3)on2)cc1    0.93
COc1ccc(N2CCN(C(=O)c3cc(C)on3)CC2)cc1    0.981
COc1cc(C)c(NC(=O)COc2ccc3c(c2)OCO3)cc1C    1.01

Next, consider the following compound.
Task: Name the recorded fold induction at 40 µM of the item Cc1ccc(NC(=O)C2CCCCC2C(=O)O)cc1C (centres unmarked) in your answer.
Output: 0.946

###

System: β-galactosidase in CMV-LacZ C2C12 myotubes
methodSummary: CMV-LacZ secondary screen in C2C12 myotubes (β-Gal stabilizing assay)
Assay type: cell-based, mouse
condition: 20 uM; C2C12 CMV-LacZ myotubes; fold relative to DMSO
// reported CMV-LACZ in Myotubes, signal relative to DMSO per item
Give the value as a plain number.

Some entries whose results are on file:
CN(/C(=N/S(=O)(=O)c1cccs1)c1ccccc1)c1ccccc1 [MLS000582947-01]    1.0729
CCN(CC(=O)NCc1cccs1)C(=O)COc1ccc(C(N)=O)cc1 [MLS002163101-01]    0.9212
CCc1ccc(S(=O)(=O)NCCOc2cccc3cccnc23)cc1 [MLS001034810-01]    1.0578
COc1cc(Cl)cc(CN2CCC(CCC(=O)NC3CC3)CC2)c1OC [MLS001162872-01]    1.061
COc1cccc(CN2CCN(Cc3ccco3)CC2)c1.O=C(O)C(=O)O [MLS001211139-01]    0.8259

Task: State, in one line, measured CMV-LACZ in Myotubes, signal relative to DMSO of O=c1[nH]c(SCc2ccc(Cl)cc2)nc2ccsc12 [MLS000755214-01]
Output: 0.9280

Task: Using the record for NS(=O)(=O)c1ccc(NC(=O)CN2CCc3ccccc32)cc1 [MLS000850522-01] , state its measured CMV-LACZ in Myotubes, signal relative to DMSO.
Output: 1.0580

Task: Please indicate CMV-LACZ in Myotubes, signal relative to DMSO recorded for COc1cc(C(C(=O)NC2CCCCC2)N(C(=O)c2snc(C(N)=O)c2N)c2ccc(C)cc2)ccc1O (stereo not drawn) [MLS001218427-01]
Output: 34.571

Task: Complete the entry with CMV-LACZ in Myotubes, signal relative to DMSO for N#CC1=C2SCN(c3ccccc3)CN2C(=O)CC1c1cccs1 (stereo not drawn) [MLS000080654-01]
Output: 1.1871

###

CMV-LACZ in Myotubes (β-galactosidase activity relative to DMSO) overview
Tested on: β-galactosidase in CMV-LacZ C2C12 myotubes
methodSummary: CMV-LacZ secondary screen in C2C12 myotubes (β-Gal stabilizing assay)
Format: cell-based, mouse
condition: 20 uM; CMV-LacZ C2C12 myotubes; 96-well format
Source text: In order to determine compounds that acted to stabilize β-gal in myogenic cells, a CMV-LacZ C2C12 cell line was used in a secondary screen. The EGFP gene from the pEGFP (Clontech) vector was replaced by LACZ PCR product with digests of the vector/PCR product performed using EcoRI (NEB) and NotI (NEB) and ligated using T4 DNA Ligase (NEB) following standard procedures to produce the CMV-LACZ vector. […]
Just the number, please, no unit after it.

COc1ccc(S(=O)(=O)N2CCN(C(=O)C3CCC3)CC2)cc1    0.9237
CCOc1cc(/C=C2\C(=O)ON=C2c2ccccc2)ccc1OC    2.7886
COc1ccc(N2CCCC2)c(NC(=O)c2ccc([N+](=O)[O-])o2)c1    1.513

Task: State CMV-LACZ in Myotubes (β-galactosidase activity relative to DMSO) on β-galactosidase in CMV-LacZ C2C12 myotubes. Entry: COc1cccc(N2C(=O)CC(N3CCc4ccccc4C3)C2=O)c1 (stereo not drawn)
Output: 1.118

Task: Retrieve CMV-LACZ in Myotubes (β-galactosidase activity relative to DMSO) on β-galactosidase in CMV-LacZ C2C12 myotubes; query "COc1cc(/C=C/c2nc(-c3ccccc3O)n[nH]2)cc(OC)c1OC"
Output: 0.8729

###

Test system: β-galactosidase in CMV-LacZ C2C12 myotubes
methodSummary: CMV-LacZ secondary screen in C2C12 myotubes (β-Gal stabilizing assay)
Format: cell-based, mouse
condition: 0.5 uM; SU9516 analogs, C2C12 CMV-LacZ, N=2
recordedMetric: CMV-LACZ in Myotubes, value relative to DMSO
Lab note: jot the number down without any unit.

Task: Name the recorded CMV-LACZ in Myotubes, value relative to DMSO of the item COc1cc(OC)c(/C=C2/C(=O)Nc3ccccc32)c(OC)c1 [NCGC00015546-04] in your answer.
Output: 1.1555

Task: Tell us which CMV-LACZ in Myotubes, value relative to DMSO value is on record for CCO/C(C)=C1\C(=O)Nc2ccccc21 [MLS000554109-01]
Output: 1.2682

Task: Answer with the recorded CMV-LACZ in Myotubes, value relative to DMSO for the molecule listed here: Cc1ccccc1/C=C1\C(=O)Nc2ccc(F)cc21 [MLS001197838-01]
Output: 1.0305

###

Tested on: α7 integrin (LacZ reporter in α7βgal+/− myoblasts)
methodSummary: Myoblast α7+/LacZ integrin FDG assay (Burkin assay in myoblasts, 96-well)
Assay type: cell-based, mouse
condition: 10 uM; α7+/LacZ myoblasts, 96-well
Reported Burkin Assay in Myoblasts, value relative to DMSO is given for each of the following compounds.
Please respond with just the number, no unit label.

# count of solved cases: 4
O=C(NC1CCCC1)c1ccc(CS(=O)(=O)Cc2ccccc2F)o1    1.073
COc1ccc(S(=O)(=O)N2CCN(C(=O)C3CCC3)CC2)cc1    1.16
Cc1cc(-c2ccccc2)n2nc(N)nc2n1    0.9665
CN(C)S(=O)(=O)c1ccc(C(=O)Nc2nc3ccccc3[nH]2)cc1    1.043

Next compound, please.
Task: Lab note: α7 integrin (LacZ reporter in α7βgal+/− myoblasts) assay, enter Burkin Assay in Myoblasts, value relative to DMSO for "COC(=O)C(=O)C/C(=N/Nc1ncnc2ccccc12)c1ccc(Cl)cc1" here
Output: 0.848

###

Test system: β-galactosidase in CMV-LacZ C2C12 myotubes
methodSummary: CMV-LacZ secondary screen in C2C12 myotubes (β-Gal stabilizing assay)
Assay type: cell-based, mouse
condition: 1 uM; C2C12 CMV-LacZ myotubes; fold relative to DMSO
recordedMetric: CMV-LACZ in Myotubes, signal relative to DMSO
Could you keep your reply to the number by itself?

O=C(NCCc1ccc(Cl)cc1)C1CCCO1 (stereo not shown)    1.0686
O=C(Cn1nc(-c2ccc(Cl)cc2)ccc1=O)N1CCC2(CC1)OCCO2    1.2400
CN(CC(=O)Nc1cccc(F)c1)C(=O)c1ccc(-c2ccc(Cl)cc2)o1    0.9086
CCc1ccc(S(=O)(=O)NCCOc2cccc3cccnc23)cc1    1.7389
CCn1c(=O)c2cc(C(=O)N(C)c3cc(C)ccc3OC)sc2c2ccccc21    1.0562

Task: # return recorded CMV-LACZ in Myotubes, signal relative to DMSO for input "COc1cc([N+](=O)[O-])cc(/C=N/NC(=O)C(O)(c2ccccc2)c2ccccc2)c1O"
Output: 0.8657

Task: Answer with reported CMV-LACZ in Myotubes, signal relative to DMSO of "Cn1c(-c2ccccc2)cc2ccccc21"
Output: 0.9238
